target: hGLP-1R (Homo sapiens, UniProt P43220); assay: cell-based or functional assay
Sequence (P43220 24-463): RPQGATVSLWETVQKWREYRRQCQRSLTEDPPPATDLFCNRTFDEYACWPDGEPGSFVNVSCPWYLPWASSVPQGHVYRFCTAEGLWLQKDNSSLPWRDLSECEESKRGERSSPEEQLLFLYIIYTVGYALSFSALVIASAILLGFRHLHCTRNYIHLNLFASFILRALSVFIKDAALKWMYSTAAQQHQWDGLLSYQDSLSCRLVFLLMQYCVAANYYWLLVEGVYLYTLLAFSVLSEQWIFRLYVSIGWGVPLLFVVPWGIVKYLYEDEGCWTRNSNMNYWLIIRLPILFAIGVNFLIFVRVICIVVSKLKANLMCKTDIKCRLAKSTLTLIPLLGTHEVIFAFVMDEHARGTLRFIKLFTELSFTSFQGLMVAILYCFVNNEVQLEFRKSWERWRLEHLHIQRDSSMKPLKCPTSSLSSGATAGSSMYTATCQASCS
Non-standard residues stand in square brackets, D forms with d. No end group written: not given here. αMeL = CC(C)C[C@](C)(N)C(=O)O; Aib = CC(C)(N)C(=O)O
Binned cAMP Rel EC50, nM (1% HSA); ranges: A (below 200 nM), B (200 nM to below 300 nM), C (300 nM or more)

Consider the worked cases shown below.
[ask] Band for the recorded cAMP Rel EC50, nM (1% HSA) of YXQGTFTSDFSXXLDKKAQXAFIEWLLEGGHSSGAPPPSGT (synthetic construct; SITE 2: note = 2-Aminoisobutyric Acid; SITE 12: note = L-ornithine; SITE 13: note = alpha-methyl-leucine; SITE 17: note = Lysine is chemically modified through conjugation of the epsilon-amino group of the Lysine side chain with (2-[2-(2-Amino-ethoxy)-ethoxy]-acetyl)-(gamma-Glu)) [Example 171] ?
[reply] B

[ask] Band for the recorded cAMP Rel EC50, nM (1% HSA) of YXQGTFTSDXSQXLDKKAQXAFIEXLIEGGPSSGAPPPSGS (Aib, 4Pal, Me4Pal, αMeL; lipidated Lys; C-terminal amide; synthetic construct; SITE 2: note = 2-Aminoisobutyric Acid; SITE 10: note = 3-(4-Pyridyl)-L-alanine; SITE 13: note = alpha-methyl-leucine; SITE 17: note = Lysine is chemically modified through conjugation of the epsilon-amino group of the Lysine side chain with (gamma-Glu)2-CO-(CH2)16-CO2H; SITE 20:) [Example 951] ?
[reply] C

Next:
[ask] Band for the recorded cAMP Rel EC50, nM (1% HSA) of YXQGTFTSDFSXXLDKKAQXAFIEYLLEXGESSGAPPPSGS (acylated; synthetic construct; SITE 2: note = 2-Aminoisobutyric Acid; SITE 12: note = L-ornithine; SITE 13: note = alpha-methyl-leucine; SITE 17: note = Lysine is chemically modified through conjugation of the epsilon-amino group of the Lysine side chain with (gamma-Glu)-(2-[2-(2-Amino-ethoxy)-ethoxy]-acetyl)) [Example 244] ?
[reply] C

[ask] Band for the recorded cAMP Rel EC50, nM (1% HSA) of YXQGTFTSDFSXXLDKKAQXAFIEYLLEGGPSSGAPPPGGT (synthetic construct; SITE 2: note = 2-Aminoisobutyric Acid; SITE 12: note = L-ornithine; SITE 13: note = alpha-methyl-leucine; SITE 17: note = Lysine is chemically modified through conjugation of the epsilon-amino group of the Lysine side chain with (2-[2-(2-Amino-ethoxy)-ethoxy]-acetyl)-(gamma-Glu)) [Example 158] ?
[reply] A

[ask] Band for the recorded cAMP Rel EC50, nM (1% HSA) of YXQGTXTSDYSIXLDKKAQXAFIEYLEEGGPSSGAPEPS (synthetic construct; SITE 2: note = 2-Aminoisobutyric Acid; SITE 6: note = alpha-methyl-2-fluoro-L-phenylalanine; SITE 13: note = alpha-methyl-leucine; SITE 17: note = Lysine is chemically modified through conjugation of the epsilon-amino group of the Lysine side chain with (2-[2-(2-Amino-ethoxy)-et)) [Example 423] ?
[reply] A

[ask] Band for the recorded cAMP Rel EC50, nM (1% HSA) of Y[Aib]QGTFTSDYSI[αMeL]LDKQAAKQFIEYLIA[Aib]GPSSGEPPPSEG-NH2 (not fully specified (residue 20)) [Example 349] ?
[reply] B

[ask] Band for the recorded cAMP Rel EC50, nM (1% HSA) of YXQGTFTSDFSXXLDKKAQXAFIEWLLEGGTSSGAPPPSGE (synthetic construct; SITE 2: note = 2-Aminoisobutyric Acid; SITE 12: note = L-ornithine; SITE 13: note = alpha-methyl-leucine; SITE 17: note = Lysine is chemically modified through conjugation of the epsilon-amino group of the Lysine side chain with (2-[2-(2-Amino-ethoxy)-ethoxy]-acetyl)-(gamma-Glu)) [Example 175] ?
[reply] C

[ask] Band for the recorded cAMP Rel EC50, nM (1% HSA) of YXQGTFTSDXSQXLDXKAQXAFIEYLIAGGPSSGEPPPSGSE (Aib, 4Pal, αMeL, Orn, Me4Pal; (γGlu)2-C18 diacid on Lys; synthetic construct; SITE 2: note = 2-Aminoisobutyric Acid; SITE 10: note = 3-(4-Pyridyl)-L-alanine; SITE 13: note = alpha-methyl-leucine; SITE 16: note = L-ornithine; SITE 17: note = Lysine is chemically modified through conjugation of the epsilon-amino group of the Lysine side chain with (gamma-Gl)) [Example 977] ?
[reply] A

# credit: patent US20240270821A1
